The measurements presented in this section are drawn from ChEMBL document CHEMBL4689842.

# Test system: Fibroblast
# protocol.details: Multiplex assay against human fibroblast
# Assay type: toxicity, cell-based
# assay.context: 48 h, 10 µM, compound concentration 10 uM, replicate 2
reported.property: Population Mitochondria Different-Phenotype (%)

compound	result
CN(C)C(=O)/C(C#N)=C/c1ccc(-c2nc3cnc4[nH]ccc4c3n2C2CCCCC2)o1	9%
CN(C)CC#Cc1ccc(OCCCc2sc(N3CCc4cccc(C(=O)Nc5nc6ccccc6s5)c4C3)nc2C(=O)O)c(F)c1 [A-1155463]	9%
Cc1cc(C)cc(-c2cnc3cc(Cl)c(-c4cccc(O)c4)cc3c2OCCCN)c1	82%
CC[C@H](C)C(=O)O[C@H]1C[C@@H](C)C=C2C=C[C@H](C)[C@H](CC[C@@H]3C[C@@H](O)CC(=O)O3)[C@H]21 [LOVASTATIN]	2%
Cc1csc2c(N[C@@H](C)CN3CCN(S(=O)(=O)c4ccc(Cl)c(Cl)c4)CC3)ncnc12	79%
COc1ncc(-c2ccc3nccc(-c4ccnnc4)c3c2)cc1NS(=O)(=O)c1ccc(F)cc1F [OMIPALISIB]	8%
CC(C)(O)CNc1ncc(-c2ccnc(Nc3ccnc(Cl)c3)n2)c(CC2CC2)n1	51%
